For reference, pIC50 measured on c-Abl kinase (Abelson murine leukemia virus, UniProt P00521):
Answers are plain numbers, as −log10 of the molar value.

Kindly note the recorded pIC50 for COc1cc2c(cc1OCCCO)Cc1c-2n[nH]c1Nc1cccc(Cl)c1 [Compound 268] , which is 7.70

Hello, I would appreciate it if you could give pIC50 for each entry below.
1. OCC(O)COc1cccc2c1Cc1c-2n[nH]c1Nc1cccc(F)c1 (stereo not drawn) [Compound 469]
2. COc1cc2c(cc1OC)-c1n[nH]c(Nc3cccc(C(F)(F)F)c3)c1C2 [Compound 26]
3. CCOc1cc2c(cc1OCC)-c1n[nH]c(NCc3ccccc3Cl)c1C2 [Compound 292]
4. COc1ccc2c(c1)-c1n[nH]c(Nc3ccccc3)c1C2 [Compound 39]
5. COc1cc2c(cc1OC)C(C)c1c-2n[nH]c1Nc1ccccc1 (stereo not drawn) [Compound 247]
6. COc1cc2c(cc1OCCCn1ccnc1)Cc1c-2n[nH]c1Nc1cccc(F)c1 [Compound 226]
7. CCC1c2cc(OC)c(OC)cc2-c2n[nH]c(Nc3cccc(Br)c3)c21 (stereo not drawn) [Compound 420]

Response:
1. 7.57
2. 6.87
3. 9.00
4. 7.89
5. 7.48
6. 6.61
7. 6.47

Report pIC50 for every entry below.
1. COc1cc2c(cc1F)Cc1c-2n[nH]c1Nc1cccc(Br)c1 [Compound 358]
2. COc1ccc(OC)c(Nc2[nH]nc3c2Cc2cc(F)ccc2-3)c1 [Compound 203]
3. COc1cc2c(cc1OC)-c1n[nH]c(Nc3cccc(O)c3)c1C2 [Compound 38]
4. CCOc1cc2c(cc1OCC(O)CN1CCCC1)-c1n[nH]c(Nc3cccnc3)c1C2 (stereo not drawn) [Compound 461]
5. CCOc1cc2c(cc1OCC(O)CN1CCCC1)-c1n[nH]c(Nc3cccc(F)c3)c1C2 (stereo not drawn) [Compound 460]
6. COc1cc2c(cc1OCCCO)Cc1c-2n[nH]c1Nc1cccc(F)c1 [Compound 265]
7. COc1cc2c(cc1OCC(O)CO)Cc1c-2n[nH]c1Nc1cccc(F)c1 (stereo not drawn) [Compound 262]

Response:
1. 6.47
2. 6.80
3. 8.70
4. 6.47
5. 8.40
6. 7.07
7. 7.57

Return reported pIC50 values for all items listed beneath this line.
1. CCOc1cccc(Nc2[nH]nc3c2Cc2cc(OCCCO)c(OC)cc2-3)c1 [Compound 376]
2. Fc1ccc(Nc2[nH]nc3c2oc2ccccc23)cc1Cl [Compound 381]
3. COc1cc2c(cc1OC)-c1n[nH]c(NCc3cc(Cl)ccc3Cl)c1C2 [Compound 330]

Response:
1: 7.22; 2: 5.83; 3: 7.04
